Test system: Escherichia coli TOP10
Assay: shrunken log2 fold change of peptide-encoding DNA abundance (4.5 h post-induction vs induction); higher = less antimicrobial activity (less host growth inhibition)
Settings: time post-induction: 4.5 h; library: site-saturation at positions 5, 18, 19, 20
Here, each record is paired with measured shrunken log2 fold change data.
// print number alone

Here's what some known entries look like.
[
  {
    "MACROMOLECULE_SEQUENCE": "RRIRVRPPRLPRPRPRPMKEPRP",
    "shrunken log2 fold change": -0.04
  },
  {
    "MACROMOLECULE_SEQUENCE": "RRIRTRPPRLPRPRPRPNQMPRP",
    "shrunken log2 fold change": -0.334
  },
  {
    "MACROMOLECULE_SEQUENCE": "RRIRTRPPRLPRPRPRPYSPPRP",
    "shrunken log2 fold change": -0.226
  },
  {
    "MACROMOLECULE_SEQUENCE": "RRIRLRPPRLPRPRPRPASCPRP",
    "shrunken log2 fold change": 0.117
  },
  {
    "MACROMOLECULE_SEQUENCE": "RRIRPRPPRLPRPRPRPLECPRP",
    "shrunken log2 fold change": -0.000998
  },
  {
    "MACROMOLECULE_SEQUENCE": "RRIRLRPPRLPRPRPRPRPFPRP",
    "shrunken log2 fold change": 0.358
  }
]

Task item: May I ask what shrunken log2 fold change has been recorded for RRIRSRPPRLPRPRPRPGRLPRP ?
Reply: 0.00392

Task item: May I ask what shrunken log2 fold change has been recorded for RRIRKRPPRLPRPRPRPEYEPRP ?
Reply: 0.0698

----------
Here, each record is paired with measured shrunken log2 fold change data.
System: Escherichia coli TOP10;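 note: peptides expressed intracellularly from a pBAD plasmid library in pooled LB shake-flask culture, induced with 0.3% L-arabinose, DNA abundance read by NGS, three biological replicates, DESeq2 with apeglm shrinkage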
Experiment: shrunken log2 fold change of peptide-encoding DNA abundance (4.5 h post-induction vs induction); higher = less antimicrobial activity (less host growth inhibition)
Conditions: time post-induction: 4.5 h; library: site-saturation at positions 5, 18, 19, 20
// print number alone

Here's what some known entries look like.
[
  {
    "MACROMOLECULE_SEQUENCE": "RRIRQRPPRLPRPRPRPMFCPRP",
    "PROPERTY_NAME": "shrunken log2 fold change",
    "TEST_RESULT": 0.0313
  },
  {
    "MACROMOLECULE_SEQUENCE": "RRIRTRPPRLPRPRPRPDLDPRP",
    "PROPERTY_NAME": "shrunken log2 fold change",
    "TEST_RESULT": 0.145
  },
  {
    "MACROMOLECULE_SEQUENCE": "RRIRQRPPRLPRPRPRPTHWPRP",
    "PROPERTY_NAME": "shrunken log2 fold change",
    "TEST_RESULT": 0.427
  },
  {
    "MACROMOLECULE_SEQUENCE": "RRIRDRPPRLPRPRPRPIDLPRP",
    "PROPERTY_NAME": "shrunken log2 fold change",
    "TEST_RESULT": -0.0817
  },
  {
    "MACROMOLECULE_SEQUENCE": "RRIRPRPPRLPRPRPRPARRPRP",
    "PROPERTY_NAME": "shrunken log2 fold change",
    "TEST_RESULT": 0.374
  },
  {
    "MACROMOLECULE_SEQUENCE": "RRIRPRPPRLPRPRPRPVLPPRP",
    "PROPERTY_NAME": "shrunken log2 fold change",
    "TEST_RESULT": 0.11
  }
]

Task item: For Escherichia coli TOP10, provide shrunken log2 fold change of RRIRPRPPRLPRPRPRPGGSPRP please.
Reply: 0.166

Task item: For Escherichia coli TOP10, provide shrunken log2 fold change of RRIRTRPPRLPRPRPRPHCAPRP please.
Reply: -0.0401

Task item: For Escherichia coli TOP10, provide shrunken log2 fold change of RRIRPRPPRLPRPRPRPCAKPRP please.
Reply: -0.0518

Task item: For Escherichia coli TOP10, provide shrunken log2 fold change of RRIRARPPRLPRPRPRPGFEPRP please.
Reply: 0.735

Task item: For Escherichia coli TOP10, provide shrunken log2 fold change of RRIRFRPPRLPRPRPRPELNPRP please.
Reply: 0.164

Task item: For Escherichia coli TOP10, provide shrunken log2 fold change of RRIRNRPPRLPRPRPRPKAIPRP please.
Reply: -0.0372

Task item: For Escherichia coli TOP10, provide shrunken log2 fold change of RRIRDRPPRLPRPRPRPADGPRP please.
Reply: -0.00193

Task item: For Escherichia coli TOP10, provide shrunken log2 fold change of RRIRLRPPRLPRPRPRPLTAPRP please.
Reply: -0.0325

Task item: For Escherichia coli TOP10, provide shrunken log2 fold change of RRIRYRPPRLPRPRPRPKICPRP please.
Reply: -0.0342

Task item: For Escherichia coli TOP10, provide shrunken log2 fold change of RRIRSRPPRLPRPRPRPTGAPRP please.
Reply: 0.633

Task item: For Escherichia coli TOP10, provide shrunken log2 fold change of RRIRNRPPRLPRPRPRPTWLPRP please.
Reply: 0.195

Task item: For Escherichia coli TOP10, provide shrunken log2 fold change of RRIRERPPRLPRPRPRPYVDPRP please.
Reply: -0.0122

Task item: For Escherichia coli TOP10, provide shrunken log2 fold change of RRIRERPPRLPRPRPRPECDPRP please.
Reply: 0.12

Task item: For Escherichia coli TOP10, provide shrunken log2 fold change of RRIRVRPPRLPRPRPRPMPFPRP please.
Reply: -0.259

Task item: For Escherichia coli TOP10, provide shrunken log2 fold change of RRIRERPPRLPRPRPRPQQLPRP please.
Reply: -0.178

Task item: For Escherichia coli TOP10, provide shrunken log2 fold change of RRIRSRPPRLPRPRPRPLSMPRP please.
Reply: -0.115

Task item: For Escherichia coli TOP10, provide shrunken log2 fold change of RRIRSRPPRLPRPRPRPMSAPRP please.
Reply: 0.202

Task item: For Escherichia coli TOP10, provide shrunken log2 fold change of RRIRKRPPRLPRPRPRPNFDPRP please.
Reply: 0.367

Task item: For Escherichia coli TOP10, provide shrunken log2 fold change of RRIRERPPRLPRPRPRPKNLPRP please.
Reply: 0.072
